Values compiled from patent US8450313B2.

# ASSAY_TARGET: full length human recombinant glucocorticoid receptor (Homo sapiens, UniProt P04150)
# Construct: It contains some partially purified full length human recombinant glucocorticoid receptor
# Sequence (P04150 1-777): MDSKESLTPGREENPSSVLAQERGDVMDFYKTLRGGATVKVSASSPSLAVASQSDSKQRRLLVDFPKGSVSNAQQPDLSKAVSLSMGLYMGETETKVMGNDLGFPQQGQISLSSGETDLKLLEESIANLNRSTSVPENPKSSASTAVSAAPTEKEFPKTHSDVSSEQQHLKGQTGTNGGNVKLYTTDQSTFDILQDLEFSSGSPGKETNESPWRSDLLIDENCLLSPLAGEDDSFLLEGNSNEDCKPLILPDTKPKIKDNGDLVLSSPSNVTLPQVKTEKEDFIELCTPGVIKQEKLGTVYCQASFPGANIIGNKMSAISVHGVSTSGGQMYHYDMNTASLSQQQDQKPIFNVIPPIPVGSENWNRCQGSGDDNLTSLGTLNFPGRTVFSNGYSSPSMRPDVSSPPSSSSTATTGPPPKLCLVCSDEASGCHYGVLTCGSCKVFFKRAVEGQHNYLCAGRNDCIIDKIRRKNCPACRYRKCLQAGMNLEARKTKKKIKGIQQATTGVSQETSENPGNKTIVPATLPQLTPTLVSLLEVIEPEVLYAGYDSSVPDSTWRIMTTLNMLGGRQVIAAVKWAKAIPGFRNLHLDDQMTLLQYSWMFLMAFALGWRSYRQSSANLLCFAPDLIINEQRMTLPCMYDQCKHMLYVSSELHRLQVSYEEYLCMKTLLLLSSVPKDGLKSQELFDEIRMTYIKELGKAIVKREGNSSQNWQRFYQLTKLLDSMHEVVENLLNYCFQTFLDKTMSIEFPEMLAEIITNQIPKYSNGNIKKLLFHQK
# EXPERIMENT: Glucocorticoid Receptor Binding Assay (Glucocorticoid Receptor Competitor Assay far red kit, fluorescence polarization)
# CONDITION_LABEL: competition with fluorescent GR ligand Fluormone GS Far Red, 3 hours at 22° C., pH 7.4; Ki calculated from IC50 by Cheng-Prusoff

{"COMPOUND": "C[C@H](c1ccc(-c2ccc(C(=O)O)cc2)cc1Cl)[C@@](O)(c1ccc2c(c1)n(C)c(=O)n2C)C(F)(F)F (stereo in doubt)", "Ki [nM]": 2.4}
{"COMPOUND": "C[C@@H](c1ccc(-c2cc(C(=O)O)ccc2F)cc1Cl)[C@](O)(c1ccc2c(c1)N(C)C(=O)CO2)C(F)(F)F (relative stereo)", "Ki [nM]": 1.8}
{"COMPOUND": "C[C@H](c1ccc(Oc2ccc(C(=O)O)c(Cl)n2)cc1Cl)[C@@](O)(c1ccc2c(c1)N(C)C(=O)CO2)C(F)(F)F (racemic) [Example 63]", "Ki [nM]": 0.8}
{"COMPOUND": "C[C@H](c1ccc(-c2ccc(C(=O)O)nc2)cc1Cl)[C@@](O)(c1ccc2oc(=O)n(C)c2c1)C(F)(F)F (relative stereo)", "Ki [nM]": 6.6}
{"COMPOUND": "C[C@@H](c1cc(Oc2cccc(CC(=O)O)c2)ccc1Cl)[C@](O)(c1ccc2c(c1)N(C)C(=O)CO2)C(F)(F)F (relative stereo)", "Ki [nM]": 8}
{"COMPOUND": "C[C@H](c1ccc(Oc2cc(Cl)c(C(=O)O)cn2)cc1Cl)[C@@](O)(c1ccc2c(c1)N(C)C(=O)CO2)C(F)(F)F (stereo in doubt)", "Ki [nM]": 1.2}

----------
# ASSAY_TARGET: full length human recombinant glucocorticoid receptor (Homo sapiens, UniProt P04150)
# Construct: It contains some partially purified full length human recombinant glucocorticoid receptor
# Sequence (P04150 1-777): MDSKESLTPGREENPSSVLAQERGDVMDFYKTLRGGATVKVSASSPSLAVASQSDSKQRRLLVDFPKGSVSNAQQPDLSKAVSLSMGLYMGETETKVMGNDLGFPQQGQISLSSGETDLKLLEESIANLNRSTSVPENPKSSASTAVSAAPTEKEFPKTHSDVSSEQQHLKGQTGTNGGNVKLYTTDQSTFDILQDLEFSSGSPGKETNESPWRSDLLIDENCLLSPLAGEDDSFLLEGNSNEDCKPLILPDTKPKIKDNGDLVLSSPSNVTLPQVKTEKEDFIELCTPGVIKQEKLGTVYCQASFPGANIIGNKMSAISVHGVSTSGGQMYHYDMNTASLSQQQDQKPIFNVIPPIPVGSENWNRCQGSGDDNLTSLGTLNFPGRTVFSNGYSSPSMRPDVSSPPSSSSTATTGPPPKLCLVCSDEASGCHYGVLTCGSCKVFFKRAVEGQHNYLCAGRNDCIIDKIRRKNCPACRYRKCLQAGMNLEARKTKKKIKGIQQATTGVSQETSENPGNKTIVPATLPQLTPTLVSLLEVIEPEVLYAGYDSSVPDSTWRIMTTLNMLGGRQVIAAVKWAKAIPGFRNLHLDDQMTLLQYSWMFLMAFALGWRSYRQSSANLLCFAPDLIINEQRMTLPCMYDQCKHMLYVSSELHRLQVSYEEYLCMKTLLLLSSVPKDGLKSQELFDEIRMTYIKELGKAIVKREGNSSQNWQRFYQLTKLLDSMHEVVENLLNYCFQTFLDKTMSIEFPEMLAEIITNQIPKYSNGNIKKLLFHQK
# EXPERIMENT: Glucocorticoid Receptor Binding Assay (Glucocorticoid Receptor Competitor Assay far red kit, fluorescence polarization)
# CONDITION_LABEL: competition with fluorescent GR ligand Fluormone GS Far Red, 3 hours at 22° C., pH 7.4; Ki calculated from IC50 by Cheng-Prusoff
pKi: −log10 of the molar value.
pKi of 8 or higher: MET. Under 8: NOT MET.

{"COMPOUND": "C[C@H](c1ccc(Oc2ccc(C(=O)O)c(Cl)c2)cc1Cl)[C@@](O)(c1ccc2c(c1)N(C)C(=O)CO2)C(F)(F)F [Example 218]", "DISCRETE_LABEL": "NOT MET"}
{"COMPOUND": "COC(=O)c1ccc(Oc2ccc(Cl)c([C@H](C)[C@](O)(c3ccc4c(c3)N(C)C(=O)CO4)C(F)(F)F)c2)cc1F (relative stereo)", "DISCRETE_LABEL": "MET"}
{"COMPOUND": "C[C@H](c1ccc(-c2ccc(C(=O)O)c(F)c2)cc1Cl)[C@@](O)(c1cnc2c(c1)N(C)C(=O)CO2)C(F)(F)F (stereo in doubt)", "DISCRETE_LABEL": "NOT MET"}
{"COMPOUND": "C[C@H](c1ccc(Oc2ccc(C(=O)O)c(Cl)c2)cc1Cl)[C@@](O)(c1ccc2[nH]c(=O)cc(C(F)(F)F)c2c1)C(F)(F)F (stereo in doubt)", "DISCRETE_LABEL": "NOT MET"}
{"COMPOUND": "C[C@H](c1ccc(Oc2ccc(C(=O)O)c(Cl)c2)cc1Cl)[C@@](O)(c1ccc2c(c1)OCC(=O)N2C)C(F)(F)F (relative stereo)", "DISCRETE_LABEL": "MET"}
{"COMPOUND": "C[C@@H](c1ccc(Oc2ccc(CC(=O)O)cc2)cc1Cl)[C@](O)(c1ccc2c(c1)N(C)C(=O)CO2)C(F)(F)F (relative stereo)", "DISCRETE_LABEL": "MET"}
{"COMPOUND": "C[C@@H](c1ccc(-c2ccc(C(=O)O)c(F)c2)cc1Cl)[C@](O)(c1ccc2oc(=O)n(C)c2c1)C(F)(F)F", "DISCRETE_LABEL": "MET"}
{"COMPOUND": "C[C@@H](c1ccc(-c2ccc(F)c(OCC(=O)O)c2)cc1Cl)[C@](O)(c1cc(F)c2c(c1)N(C)C(=O)CO2)C(F)(F)F (stereo in doubt)", "DISCRETE_LABEL": "MET"}
{"COMPOUND": "C[C@H](c1ccc(Oc2ccc(C(=O)O)c(Cl)c2)cc1Cl)[C@@](O)(c1ccc2oc(=O)n(C)c2c1)C(F)(F)F (relative stereo)", "DISCRETE_LABEL": "MET"}
{"COMPOUND": "COC(=O)c1cnc(Oc2ccc([C@H](C)[C@](O)(c3cc(C)c(C#N)c(C)c3)C(F)(F)F)c(Cl)c2)cc1C(F)(F)F (stereo in doubt)", "DISCRETE_LABEL": "MET"}
{"COMPOUND": "C[C@@H](c1cc(Oc2ccc(C(=O)O)c(F)c2)ccc1Cl)[C@](O)(c1ccc2c(c1)N(C)C(=O)CO2)C(F)(F)F (relative stereo)", "DISCRETE_LABEL": "MET"}

----------
# ASSAY_TARGET: full length human recombinant glucocorticoid receptor (Homo sapiens)
# Construct: It contains some partially purified full length human recombinant glucocorticoid receptor
# EXPERIMENT: Glucocorticoid Receptor Binding Assay (Glucocorticoid Receptor Competitor Assay far red kit, fluorescence polarization)
# CONDITION_LABEL: competition with fluorescent GR ligand Fluormone GS Far Red, 3 hours at 22° C., pH 7.4; Ki calculated from IC50 by Cheng-Prusoff
Decide using Ki alone. Strictly below 2 nM: 1. Equal to or above 2 nM: -1.

{"COMPOUND": "C[C@H](c1ccc(-c2ccc(C(=O)O)c(F)c2)cc1Cl)[C@@](O)(c1ccc2c(c1)N(C)C(=O)C(C)(C)O2)C(F)(F)F (relative stereo)", "DISCRETE_LABEL": -1}
{"COMPOUND": "CC(c1ccc(O)cc1Cl)C(O)(c1ccc2c(c1)n(C)c(=O)n2C)C(F)(F)F (stereo not drawn)", "DISCRETE_LABEL": 1}
{"COMPOUND": "C[C@H](c1ccc(Oc2ccc(Cl)cc2C(=O)O)cc1Cl)[C@@](O)(c1ccc2c(c1)n(C)c(=O)n2C)C(F)(F)F (stereo in doubt)", "DISCRETE_LABEL": 1}
{"COMPOUND": "C[C@H](c1ccc(-c2ccc(C(=O)O)c(F)c2)cc1Cl)[C@@](O)(c1ccc2c(c1)NC(=O)CO2)C(F)(F)F (relative stereo)", "DISCRETE_LABEL": -1}
{"COMPOUND": "CCOC(=O)c1cccc(-c2ccc([C@@H](C)[C@@](O)(c3ccc4oc(=O)n(C)c4c3)C(F)(F)F)c(Cl)c2)n1 (relative stereo)", "DISCRETE_LABEL": -1}
{"COMPOUND": "C[C@H](c1ccc(Oc2ccc(C(=O)O)cc2)cc1Cl)[C@@](O)(c1ccc2c(c1)N(C)C(=O)CO2)C(F)(F)F (racemic)", "DISCRETE_LABEL": -1}
{"COMPOUND": "C[C@H](c1ccc(Oc2ncc(C(=O)O)cn2)cc1Cl)[C@@](O)(c1ccc2oc(=O)n(C)c2c1)C(F)(F)F (relative stereo)", "DISCRETE_LABEL": 1}
{"COMPOUND": "CCOC(=O)c1cc(-c2ccc([C@H](C)[C@](O)(c3ccc4oc(=O)n(C)c4c3)C(F)(F)F)c(Cl)c2)ccc1F (relative stereo)", "DISCRETE_LABEL": 1}
{"COMPOUND": "COC(=O)c1ccc(-c2ccc([C@@H](C)[C@@](O)(c3cnc4c(c3)N(C)C(=O)CO4)C(F)(F)F)c(Cl)c2)cc1F (stereo in doubt)", "DISCRETE_LABEL": -1}
{"COMPOUND": "C[C@@H](c1cc(Oc2ccc(C(=O)O)cc2F)ccc1Cl)[C@](O)(c1ccc2c(c1)N(C)C(=O)CO2)C(F)(F)F (relative stereo)", "DISCRETE_LABEL": -1}
{"COMPOUND": "C[C@H](c1ccc(Oc2ccc(C(=O)O)c(F)c2)cc1Cl)[C@@](O)(c1ccc2c(c1)N(C)C(=O)CO2)C(F)(F)F", "DISCRETE_LABEL": 1}
{"COMPOUND": "C[C@H](c1ccc(Oc2ccc(C(=O)O)cn2)cc1Cl)[C@@](O)(c1ccc2c(c1)OCC(=O)N2C)C(F)(F)F (relative stereo)", "DISCRETE_LABEL": -1}
{"COMPOUND": "C[C@H](c1ccc(Oc2cnc(C(=O)O)cn2)cc1Cl)[C@@](O)(c1ccc2c(c1)n(C)c(=O)n2C)C(F)(F)F (relative stereo)", "DISCRETE_LABEL": -1}
{"COMPOUND": "C[C@H](c1ccc(Oc2ccc(C(=O)O)c(Cl)n2)cc1Cl)[C@@](O)(c1ccc2oc(=O)n(C)c2c1)C(F)(F)F (relative stereo)", "DISCRETE_LABEL": 1}
{"COMPOUND": "C[C@H](c1ccc(-c2cccc(C(=O)O)n2)cc1Cl)[C@@](O)(c1ccc2oc(=O)n(C)c2c1)C(F)(F)F (relative stereo)", "DISCRETE_LABEL": -1}
{"COMPOUND": "C[C@H](c1ccc(Oc2ncccn2)cc1Cl)[C@@](O)(c1ccc2oc(=O)n(C)c2c1)C(F)(F)F (stereo in doubt)", "DISCRETE_LABEL": 1}
{"COMPOUND": "C[C@H](c1ccc(Br)cc1Cl)[C@@](O)(c1ccc2oc(=O)n(C)c2c1)C(F)(F)F (relative stereo)", "DISCRETE_LABEL": 1}
{"COMPOUND": "C[C@H](c1ccc(Oc2cnc(C(=O)O)cn2)cc1Cl)[C@@](O)(c1ccc2c(c1)N(C)C(=O)CO2)C(F)(F)F (racemic)", "DISCRETE_LABEL": -1}
{"COMPOUND": "C[C@H](c1ccc(Br)cc1Cl)[C@@](O)(c1ccc2c(c1)oc(=O)n2C)C(F)(F)F (relative stereo)", "DISCRETE_LABEL": 1}
{"COMPOUND": "C[C@H](c1cc(O)ccc1Cl)[C@@](O)(c1ccc2oc(=O)n(C)c2c1)C(F)(F)F (stereo in doubt)", "DISCRETE_LABEL": -1}
{"COMPOUND": "C[C@@H](c1ccc(-c2cccc(C(=O)O)c2)cc1Cl)[C@](O)(c1ccc2c(c1)N(C)C(=O)CO2)C(F)(F)F (stereo in doubt)", "DISCRETE_LABEL": 1}
{"COMPOUND": "COC(=O)c1cnc(Oc2ccc([C@@H](C)[C@@](O)(c3ccc4c(c3)N(C)C(=O)CO4)C(F)(F)F)c(Cl)c2)c(Cl)c1 (racemic)", "DISCRETE_LABEL": 1}
{"COMPOUND": "C[C@@H](c1ccc(-c2ccc(F)c(C(=O)O)c2)cc1Cl)[C@](O)(c1ccc2c(c1)N(C)C(=O)CO2)C(F)(F)F (relative stereo)", "DISCRETE_LABEL": 1}
{"COMPOUND": "C[C@@H](c1ccc(Oc2ccc(C(=O)O)c(F)c2)cc1Cl)[C@](O)(c1ccc2c(c1)n(C)c(=O)n2C)C(F)(F)F (stereo in doubt)", "DISCRETE_LABEL": 1}
